Please respond with reported Percent Effect for every item in the list.
ASSAY_TARGET: AMP-activated protein kinase, AMPK (Homo sapiens) (UniProt P54646+O43741+P54619+Q9UGJ0+Q9Y478+Q13131+Q9UGI9)
EXPERIMENT: AMP-dependent Kinase enzyme assay. An in vitro enzyme assay that detects ADP turnover that is directly proportional to AMPK activity. This uses naive AMPK that is activated during the assay with MK-8722
Assay type: functional
Set-up: scale not given: direction of the effect not stated beside the values
CONDITIONS_USED: 30 µM
Write it as a number; the unit % goes unstated.

Exercise: Which measured Percent Effect value corresponds to "COCCN1C(=O)[C@H]2CC[C@@H]1CN(S(=O)(=O)c1ccc(OC)cc1)C2" ?
Key: 13.1

Exercise: Which measured Percent Effect value corresponds to "CCN(CCOC)C(=O)c1ccc2c(c1)nc(N1CC[C@H](O)C1)n2C" ?
Key: 3.21

Exercise: Which measured Percent Effect value corresponds to CC(C)c1cc(C(=O)NCC2CCCN(c3ncccn3)C2)n(C)n1 (stereo unspecified) ?
Key: 5.97

Exercise: Which measured Percent Effect value corresponds to "COc1ccc(N2CCN(C(=O)CCCc3cn[nH]c3)CC2=O)cc1" ?
Key: -3.84

Exercise: Which measured Percent Effect value corresponds to CCc1c(C)nn2c(O)cc(C3CCN(C(=O)c4ccccn4)C3)nc12 (stereo unspecified) ?
Key: 4.34

Exercise: Which measured Percent Effect value corresponds to "Cc1c(CN2CCCCC2)c(O)n(CCO)c(=O)c1C#N" ?
Key: -415

Exercise: Which measured Percent Effect value corresponds to "O=C(NCC(F)(F)F)c1ccc(-n2cncn2)nn1" ?
Key: -2.06

Exercise: Which measured Percent Effect value corresponds to "CCc1ccc2nc(-c3cnn(C)c3)cc(C(=O)N3CCOCC3)c2c1" ?
Key: 8.54

Exercise: Which measured Percent Effect value corresponds to "COC1CCN(c2ccc(F)cc2CN(C)C(=O)c2cc[nH]n2)CC1" ?
Key: 12.3

Exercise: Which measured Percent Effect value corresponds to "CCNC(=O)[C@@H]1C[C@@H](N)CN1C(=O)c1[nH]c2ccccc2c1CC" ?
Key: 13.5

Exercise: Which measured Percent Effect value corresponds to Cc1nc(CN2CCCC2Cn2cccn2)nc2ccccc12 (stereo unspecified) ?
Key: -8.75

* * *

ASSAY_TARGET: AMP-activated protein kinase, AMPK (Homo sapiens) (UniProt P54646+O43741+P54619+Q9UGJ0+Q9Y478+Q13131+Q9UGI9)
EXPERIMENT: AMP-dependent Kinase enzyme assay. An in vitro enzyme assay that detects ADP turnover that is directly proportional to AMPK activity. This uses naive AMPK that is activated during the assay with MK-8722
Type: functional
Set-up: scale not given: direction of the effect not stated beside the values
CONDITIONS_USED: 30 µM
READOUT_NAME: Percent Effect (%)
Write it as a number; the unit % goes unstated.

Exercise: Which measured Percent Effect value corresponds to "CN(C)CCN(Cc1ccc(F)cc1)C(=O)c1ccn(C)c(=O)c1" ?
Key: 9.83

Exercise: Which measured Percent Effect value corresponds to "Cc1nc(C)c(C(=O)N2CCCc3c(F)cccc32)o1" ?
Key: -0.713

Exercise: Which measured Percent Effect value corresponds to "CN1CCCN(c2ccc(F)cc2CNC(=O)c2cccnc2)CC1" ?
Key: 38.2

Exercise: Which measured Percent Effect value corresponds to COC(=O)c1sc(C(NC(=O)c2ccccc2)C2CC2)nc1C (stereo unspecified) ?
Key: -2.15

Exercise: Which measured Percent Effect value corresponds to Cc1cc(CC(=O)NC2CCCN(c3ccccc3Cl)C2=O)n[nH]1 (stereo unspecified) ?
Key: 4.62

Exercise: Which measured Percent Effect value corresponds to "CN(Cc1ccc(F)cc1F)Cc1cc2c(cc1Br)OCCO2" ?
Key: -3.85

Exercise: Which measured Percent Effect value corresponds to "O=C(O)CCc1cc2n(n1)CCCN(C(=O)c1ccc(Cl)s1)C2" ?
Key: 2.58

Exercise: Which measured Percent Effect value corresponds to "O=C(NCc1ccc(Br)c(F)c1)Nc1cn[nH]c1" ?
Key: -0.537

Exercise: Which measured Percent Effect value corresponds to Cc1ncc(C(=O)N2CCOC(C(=O)N3CCCCCC3)C2)c(C)n1 (stereo unspecified) ?
Key: -3.31

Exercise: Which measured Percent Effect value corresponds to "CC(C)N(CC(N)=O)C(=O)CCC(=O)c1ccc(F)cc1F" ?
Key: -2.63

Exercise: Which measured Percent Effect value corresponds to "Cc1nc(COc2ccc(N(C)S(C)(=O)=O)cc2)sc1C" ?
Key: -7
